Measure: melting point

Record excerpt, results attached:
>>> print(df.to_string())
                                   compound       reported
0  COc1ccccc1N1CCN(CCNC(=O)CCN2CCC(c3c[nH]c4cc(F)ccc34)CC2)CC1    68 to 70 °C
1  O=c1oc(-c2ccccc2)cc(O)c1C(SCc1ccccc1)c1ccccc1 (stereo not given)  189 to 191 °C
2  CCOC(=O)CC1c2ccccc2C(=O)N1c1ccccc1 (stereo not given)  109 to 110 °C
3    Cc1nn(C)c(Cl)c1C(=O)Nc1cccc2c1CCC2(C)C         175 °C
4  Fc1cc(CC2(Cc3ccnc(F)c3)c3ccccc3-c3ncncc32)ccn1  171 to 174 °C
5         O=S(=O)(F)c1ccccc1S(=O)(=O)N1CCC1          93 °C
6  O=C(Nc1cccc2[nH]ccc12)c1ccccc1OCC1CO1 (stereo not given)         171 °C
7        O=C(O)CCc1ccc(CC(=O)OCc2ccccc2)cc1  62 to 64.5 °C

I'd like to know its melting point. The compound in question is COc1cc2c(cc1Nc1ncc(Cl)c(Nc3cccc(N4CCOCC4)c3)n1)CCN(CC(=O)N(C)C)CC2
91 to 111 °C

I'd like to know its melting point. The compound in question is CCCc1ccc(-c2cc(NC(=O)C3Cc4ccccc4C3)n[nH]2)cc1
211 to 213 °C

I'd like to know its melting point. The compound in question is COc1cc(N)c(N)cc1C(N)=O
181 to 183 °C

I'd like to know its melting point. The compound in question is COC(=O)C1Cc2c([nH]c3ccccc23)C(c2ccccc2)N1 (stereo not given)
217 to 218 °C

I'd like to know its melting point. The compound in question is Cc1c(S(=O)(=O)C[N+](=O)[O-])cc2c(c1C)OC(C)(C)CC2
98.5 to 99.5 °C

I'd like to know its melting point. The compound in question is Oc1ncc(-c2ccc(C(F)(F)F)cc2)cn1
271 to 273 °C

I'd like to know its melting point. The compound in question is Brc1ccc(-c2cnc(-c3ccccc3)nc2)cc1
194 °C

====

Measure: melting point

Record excerpt, results attached:
                                   compound       reported
0  Cc1cc(C(=O)NS(=O)(=O)Cc2ccccc2C(F)(F)F)nc(Cl)n1  198 to 199 °C
1  O=C(O)CN1C(=O)C(NC(=O)Nc2ccc(Cl)cc2)N=C(c2ccccc2)c2ccccc21 (stereo unspecified)  178 to 180 °C
2                 Cn1nnnc1-c1ccc2[nH]ccc2c1  149 to 150 °C
3  OC(Cc1nnn[nH]1)(Cn1cncn1)c1ccc(Cl)cc1Cl (stereo unspecified)  214 to 215 °C
4          C/C(=C\c1ccc(C(F)(F)F)cc1)C(=O)O         170 °C
5  CC(=O)SCC(C)C(=O)N(C(C)C(=O)O)C1CCc2ccccc21 (stereo unspecified)  133 to 137 °C
6  Nc1nc(C(=O)N2CCN(Cc3ccc4c(c3)OCO4)CC2)c(-c2ccncc2)s1  216 to 217 °C
7                 COc1ccc2c(c1)C(C)(C)NC2=O  146 to 147 °C
8        CON1C=C2N=NC3=C(N2C1)N(C(C)C)CC=C3  159 to 162 °C
9           CC(C)(C)c1ccc(Sc2ccc(Br)cc2)cc1    39 to 46 °C

I'd like to know its melting point. The compound in question is O=C(CCl)Nc1ccc2c(c1NC(=O)c1ccccc1F)C(=O)c1ccccc1C2=O
245 to 246 °C

====

Entries and their melting point values follow.

                                   compound       reported
0  COc1c(OCCCCCC(=O)N(CCO)C2CCCCC2)ccc2c1CN1CC(=O)NC1=N2  208 to 209 °C
1                      O=C(NCCCO)c1ccc[nH]1    71 to 73 °C
2    OCCCc1ccc(OCc2coc(/C=C/c3ccccc3)n2)cc1    95 to 96 °C
3  CC(=O)OCC12CCC(=O)C=C1CCC1C2CCC2(C)C(O)CCC12 (stereo unspecified)  125 to 127 °C

I'd like to know its melting point. The compound in question is OCCCc1nc2cccnc2[nH]1
151 to 153 °C

I'd like to know its melting point. The compound in question is CC(C)(C)c1cc(N(C(=O)Cc2ccccc2C(=O)O)c2ccccc2)cc(C(C)(C)C)c1O
170 to 175 °C

====

Entries and their melting point values follow.

>>> print(df.to_string())
                                   compound        measure       reported
0  CCCC=Cc1c(C(C)C)nc(C(C)C)c(CO)c1-c1cccc(C)c1  melting point    94 to 97 °C
1  CCCc1nc(/C=C/c2ccccc2)c(C(=O)OCC)n1Cc1cc2c(cc1Cl)OCO2  melting point         161 °C
2  CCC(C(C)C)C(CN)CC(=O)O (stereo not given)  melting point  170 to 180 °C
3  CC(C)(C)c1cc(C(=O)Sc2ccccn2)cc(C(C)(C)C)c1  melting point    73 to 74 °C

Now turn to the next compound.
I'd like to know its melting point. The compound in question is CCN1C(=O)C(C)(C)C(=O)N(C)c2cc(CN(CCn3ccc4oc(C)cc4c3=O)Cc3cccnc3C=O)ccc21
147 to 149 °C

====

Measure: melting point (°C)

Record excerpt, results attached:
                                   compound  reported
0  O=C(NC(=O)c1ccc(F)cc1Cl)Nc1ccc(C(F)(F)F)c(F)c1       181
1  CC(=O)N1CC=C(C2=C(C#N)C(c3cccc4nonc34)c3c[nH]nc3N2)CC1 (centres undefined)       237

(P) O=C(C=Cc1ccc(N2CCCC2)nc1)N1CCc2c([nH]c3ccccc23)C1c1ccc2c(c1)CCO2 (centres undefined)
(Q) O=C(Nc1ccccc1)O[C@@H]1CN=C(c2ccoc2)O[C@H]1c1ccccc1 (racemic)
I'd appreciate it if you could identify which of P and Q has the greater melting point. Selection: enter the item's label.
P

====

Measure: melting point

In [3]: df
Out[3]:
                             molecule       reported
0  CCN(CC)C(=O)Nc1ccc(S(=O)(=O)Cl)cc1  148 to 150 °C

I'd like to know its melting point. The molecule in question is Cn1c(N2CC3CC2CN3C(=O)OC(C)(C)C)nc(-c2ccncn2)cc1=O (stereo unspecified)
198 to 200 °C

I'd like to know its melting point. The molecule in question is O=C1CCC(=O)N1c1ncccn1
148 to 150 °C

I'd like to know its melting point. The molecule in question is CCCCCC(=O)Nc1ccnc(-c2ccncc2)n1
119 to 120 °C

I'd like to know its melting point. The molecule in question is CCC(CC)(CO)c1cc(Cl)nnc1Cl
85 to 87 °C

I'd like to know its melting point. The molecule in question is CCOC(=O)Cn1nnc2cc(-c3ncc(C(F)(F)F)cc3Cl)ccc21
127 to 129 °C

====

Entries and their melting point values follow.

>>> df
                                   compound        measure     reported
0  CCCCCc1c(C(C)C)nc(C(C)C)c(CCO)c1-c1ccc(F)cc1  melting point  81 to 83 °C
1  C/C(=N\O)c1cccc(NC(=O)NCC(=O)N(CC(=O)N2CCCC(C)(C)C2)c2ccccc2)c1  melting point       248 °C
2       CCCOC(=O)c1cncn1C(c1ccccc1)c1ccccc1  melting point        81 °C

Now turn to the next compound.
I'd like to know its melting point. The compound in question is O=C(Nc1ccccc1)c1cccc(-c2ccnc3c(C(=O)c4cccs4)cnn23)c1
211 to 212 °C

====

Measure: melting point

Record excerpt, results attached:
                                   molecule       reported
0        Cc1c(C)n(CCF)c2c(OCc3ccccc3)nncc12  106 to 107 °C
1  Cc1cccc(-c2nc(NC(=O)Cc3ccccc3)sc2-c2ccnc(NC(=O)Cc3ccccc3)n2)c1  110 to 113 °C
2  N#CC1CCN1C(c1ccccc1)c1ccccc1 (stereo not given)  104 to 105 °C

I'd like to know its melting point. The molecule in question is COC(=O)C1Sc2cc(Cl)ccc2OCC1=O (stereo not given)
92 to 94 °C

I'd like to know its melting point. The molecule in question is Cc1cc2c(cc1C)C(c1ccccc1)(C(F)(F)C(F)(F)F)c1cc(C)c(C)cc1O2
178 to 179 °C
